Recorded values, source patent US9656962B2.

The following compounds are listed with their measured Emax values.
biological target: μ-opioid receptor (Homo sapiens (Human)); test: μ-opioid receptor [35S]GTPγS functional assay, HEK-293 cells (Table 6); type: biochemical; details: relative to DAMGO
Quick note: give the figure in %, leave out the unit.

Solved cases below.
• CC(C)CNC(=O)[C@H]1C[C@]23CCN(C)[C@H](Cc4ccc(O)cc42)[C@]3(O)C1 = 49.5
• O=C(NCc1ccc(F)cc1F)[C@@H]1C[C@]23CCN(CC4CC4)[C@H](Cc4ccc(O)cc42)[C@]3(O)C1 = -1
• CN1CC[C@]23C[C@@H](C(=O)NCc4ccc(O)cc4O)C[C@@]2(O)[C@H]1Cc1ccc(O)cc13 = 26.7
• Cc1ccc(CNC(=O)[C@H]2C[C@]34CCN(CC5CC5)[C@H](Cc5ccc(C#N)cc53)[C@]4(O)C2)cc1 = 29.3
• O=C(NCc1cc(F)cc(F)c1)[C@H]1C[C@]23CCN(CC4CC4)[C@H](Cc4ccc(O)cc42)[C@]3(O)C1 = 39.9
• O=C(NCc1ccc(O)c(Cl)c1)[C@@H]1C[C@]23CCN(CC4CC4)[C@H](Cc4ccc(O)cc42)[C@]3(O)C1 = -1
• N#Cc1ccc2c(c1)[C@]13CCN(CC4CC4)[C@H](C2)[C@]1(O)C[C@@H](C(=O)NCCN1CCOCC1)C3 = 10.5
• O=C(NCCc1ccc(Cl)cc1Cl)[C@@H]1C[C@]23CCN(CC4CC4)[C@H](Cc4ccc(O)cc42)[C@]3(O)C1 = 0
• O=C(NCc1cc(O)cc(O)c1)[C@@H]1C[C@]23CCN(CC4CC4)[C@H](Cc4ccc(O)cc42)[C@]3(O)C1 = -1
• CN1CC[C@]23C[C@H](C(=O)NCc4ccc(Cl)c(Cl)c4)C[C@@]2(O)[C@H]1Cc1ccc(O)cc13 = 96.7

# Emax of C[C@@H]1CN(CCNC(=O)[C@@H]2C[C@]34CCN(CC5CC5)[C@H](Cc5ccc(O)cc53)[C@]4(O)C2)C[C@H](C)O1 = 9.53

# Emax of Cc1ccc(CNC(=O)[C@@H]2C[C@]34CCN(CC5CC5)[C@H](Cc5ccc(O)cc53)[C@]4(O)C2)cc1Cl = -1

# Emax of O=S(=O)(N[C@@H]1C[C@]23CCN(CC4CC4)[C@H](Cc4ccc(O)cc42)[C@]3(O)C1)c1ccccc1 = 1

# Emax of CN1CC[C@]23C[C@@H](C(=O)NCc4ccc(Cl)c(Cl)c4)C[C@@]2(O)[C@H]1Cc1ccc(O)cc13 = 73.3

# Emax of O=C(NCc1ccc(Cl)cc1F)[C@@H]1C[C@]23CCN(CC4CC4)[C@H](Cc4ccc(O)cc42)[C@]3(O)C1 = -0.33

# Emax of CC(C)N1CCN(C(=O)[C@@H]2C[C@]34CCN(CC5CC5)[C@H](Cc5ccc(O)cc53)[C@]4(O)C2)CC1 = -1

# Emax of O=C(NCc1cc(Cl)ccc1Cl)[C@@H]1C[C@]23CCN(CC4CC4)[C@H](Cc4ccc(O)cc42)[C@]3(O)C1 = -1

###

target: μ-opioid receptor (Homo sapiens (Human)); experiment: μ-opioid receptor [35S]GTPγS functional assay, HEK-293 or CHO cells (Table 4); format: biochemical; details: μ GTP
Measured metric: log10 of EC50 (log10 of the value in nM)
Hi team, quick reminder: these entries are log10 of EC50 (nM).

Solved cases below.
- CN1CC[C@]23C[C@H](C(N)=O)C[C@@]2(O)[C@H]1Cc1ccc(O)cc13 [Compound 78]: 2.49
- O=C(NCc1ccc(Cl)c(Cl)c1)[C@H]1C[C@]23CCN(CC4CC4)[C@H](Cc4ccc(O)cc42)[C@]3(O)C1 [Compound 47]: 0.44
- O=C(NCc1ccc(O)cc1)[C@@H]1C[C@]23CCN(CC4CC4)[C@H](Cc4ccc(O)cc42)[C@]3(O)C1 [Compound 39]: 1.57
- O=C(NCCN1CCOCC1)[C@@H]1C[C@]23CCN(CC4CC4)[C@H](Cc4ccc(O)cc42)[C@]3(O)C1 [Compound 84]: 1.86
- O=C(NCCN1CCOCC1)[C@H]1C[C@]23CCN(CC4CC4)[C@H](Cc4ccc(O)cc42)[C@]3(O)C1 [Compound 93]: 0.60

Test item O=C(NCc1ccccc1)[C@H]1C[C@]23CCN(CC4CC4)[C@H](Cc4ccc(O)cc42)[C@]3(O)C1 [Compound 34] ; μ-opioid receptor (Homo sapiens (Human)); reported log10 of EC50 was 0.57

Test item O=C([C@@H]1C[C@]23CCN(CC4CC4)[C@H](Cc4ccc(O)cc42)[C@]3(O)C1)N1CCN(c2ccccc2)CC1 [Compound 86] ; μ-opioid receptor (Homo sapiens (Human)); reported log10 of EC50 was 1.46

###

target: κ-opioid receptor (Homo sapiens (Human)); assay: κ-opioid receptor [35S]GTPγS functional assay, HEK-293 cells (Table 6); assay type: biochemical; conditions: κ GTP
Measured metric: EC50

# EC50 of CN1CC[C@]23C[C@H](C(=O)NCCc4ccccc4)C[C@@]2(O)[C@H]1Cc1ccc(O)cc13 = 0.138 µM

###

biological target: κ-opioid receptor (Homo sapiens (Human)); assay: κ-opioid receptor [35S]GTPγS functional assay, U-2 OS cells (Table 5); format: biochemical; conditions: relative to U69,593
The following molecules are listed with their measured Emax values.
Quick note: give the figure in %, leave out the unit.

Solved cases below.
- O=C(NCc1ccc(Cl)c(Cl)c1)[C@H]1C[C@]23CCN(CC4CC4)[C@H](Cc4ccc(O)cc42)[C@]3(O)C1: 95
- O=C(NCc1ccccc1)[C@@H]1C[C@]23CCN(CC4CC4)[C@H](Cc4ccc(O)cc42)[C@]3(O)C1: 103
- O=C(NCCc1ccccc1)[C@H]1C[C@]23CCN(CC4CC4)[C@H](Cc4ccc(O)cc42)[C@]3(O)C1: 102
- CN(C)C(=O)[C@@H]1C[C@]23CCN(CC4CC4)[C@H](Cc4ccc(O)cc42)[C@]3(O)C1: 109
- COC(=O)[C@@H]1C[C@]23CCN(CC4CC4)[C@H](Cc4ccc(O)cc42)[C@]3(O)C1: 108
- O=C(NCc1ccc(Cl)cc1Cl)[C@H]1C[C@]23CCN(CC4CC4)[C@H](Cc4ccc(O)cc42)[C@]3(O)C1: 100

# Emax of COc1ccc2c(c1)C13CCN(CC4CC4)[C@H](C2)[C@]1(O)C[C@@H](N)C3 (stereo in doubt) = 107

# Emax of CC(C)CNC(=O)[C@@H]1C[C@]23CCN(CC4CC4)[C@H](Cc4ccc(O)cc42)[C@]3(O)C1 = 111

###

biological target: κ-opioid receptor (Homo sapiens (Human), UniProt P41145); assay: κ-opioid receptor [35S]GTPγS functional assay, U-2 OS cells (Table 5); type: biochemical; details: κ GTP
Rule for this label: yes (1) means EC50 is less than 1 nM; no (0) means EC50 is at least 1 nM.

Previously resolved entries follow.
* COc1ccc2c(c1)[C@]13CCN(CC4CC4)[C@H](C2)[C@]1(O)C[C@H](C#N)C3 [Compound 25] | no (0)
* COc1ccc2c(c1)[C@]13CCN(CC4CC4)[C@H](C2)[C@]1(O)C[C@@H](C(=O)N1CCCC1)C3 [Compound 20] | no (0)
* COc1ccc2c(c1)[C@]13CCN(CC4CC4)[C@H](C2)[C@]1(O)C[C@@H](C#N)C3 [Compound 26] | no (0)
* O=C(NCc1ccccc1)[C@@H]1C[C@]23CCN(CC4CC4)[C@H](Cc4ccc(O)cc42)[C@]3(O)C1 [Compound 33] | no (0)
* NC(=O)[C@H]1C[C@]23CCN(CC4CC4)[C@H](Cc4ccc(O)cc42)[C@]3(O)C1 [Compound 30] | no (0)

Inquiry: Dear reviewer, please state whether CCN(CC)C(=O)[C@@H]1C[C@]23CCN(CC4CC4)[C@H](Cc4ccc(O)cc42)[C@]3(O)C1 [Compound 59] has EC50 strictly beneath 1 nM.
Reply text: no (0)

Inquiry: Dear reviewer, please state whether O=C(NCc1ccccc1)[C@H]1C[C@]23CCN(CC4CC4)[C@H](Cc4ccc(O)cc42)[C@]3(O)C1 [Compound 34] has EC50 strictly beneath 1 nM.
Reply text: yes (1)

Inquiry: Dear reviewer, please state whether COc1ccc2c(c1)[C@]13CCN(CC4CC4)[C@H](C2)[C@]1(O)C[C@H](C(=O)O)C3 [Compound 14] has EC50 strictly beneath 1 nM.
Reply text: no (0)

###

biological target: κ-opioid receptor (Homo sapiens (Human)); experiment: κ-opioid receptor [35S]GTPγS functional assay, HEK-293 or CHO cells (Table 4); format: biochemical; conditions: κ GTP
Measured metric: EC50 (nM)
Quick note: give the figure in nM, leave out the unit.

- NC(=O)[C@H]1C[C@]23CCN(CC4CC4)[C@H](Cc4ccc(O)cc42)[C@]3(O)C1 [Compound 30]: 2.49
- N=C(N)NCCNC(=O)[C@@H]1C[C@]23CCN(CC4CC4)[C@H](Cc4ccc(O)cc42)[C@]3(O)C1 [Compound 6]: 0.86
- COC(=O)[C@@H]1C[C@]23CCN(CC4CC4)[C@H](Cc4ccc(O)cc42)[C@]3(O)C1 [Compound 12]: 2.95

Test item CC(C)CNC(=O)[C@H]1C[C@]23CCN(CC4CC4)[C@H](Cc4ccc(O)cc42)[C@]3(O)C1 [Compound 36] ; κ-opioid receptor (Homo sapiens (Human)); reported EC50 was 2.24

Test item Cc1ccc(CNC(=O)[C@H]2C[C@]34CCN(CC5CC5)[C@H](Cc5ccc(O)cc53)[C@]4(O)C2)cc1 [Compound 38] ; κ-opioid receptor (Homo sapiens (Human)); reported EC50 was 0.43

Test item Cc1ccc(CNC(=O)[C@@H]2C[C@]34CCN(CC5CC5)[C@H](Cc5ccc(O)cc53)[C@]4(O)C2)cc1 [Compound 37] ; κ-opioid receptor (Homo sapiens (Human)); reported EC50 was 1.74
